Experiment Description: Micafungin plasma pharmacokinetics in neonates and young infants (HPLC)
Assay type: in vivo, human
Assay Conditions: human, iv, plasma AUC0–24, age 0 to ≤28 days (n = 16), 8-15 mg/kg/day iv, mean ± SD, SD
*1 amine or outer side, *2 acyl side, *3 side chain or, on linkers, in order; H or OH if unused. Where a SMILES comes first, the peptide text is derived from it. Bridges are numbered along the chain shown (N, C = ends). [ ]: non-standard residue; d: D form. The star is where a group is joined. hTyr(3S-OH,4S-OH,3'-OSO3H) = N[C@H](C(=O)O)[C@H](O)[C@@H](O)c1ccc(O)c(OS(=O)(=O)O)c1; Orn(4R-OH,5R-OH) = O=C([C@H](C[C@@H](O)[C@@H](O)N[*:3])N[*:1])[*:2]; Pro(3S-OH,4S-Me) = C[C@H]1CN[C@H](C(=O)O)[C@H]1O; X1 = CCCCCOc1ccc(-c2cc(-c3ccc(C(=O)*)cc3)no2)cc1; Gln(3R-OH) = NC(=O)C[C@@H](O)[C@H](N)C(=O)O; Hyp = O=C(O)[C@@H]1C[C@@H](O)CN1
Readout Kind: AUC(0-t)
The reply should read as a number followed by its unit.

Ask: Consider the compound CCCCCOc1ccc(-c2cc(-c3ccc(C(=O)N[C@H]4C[C@@H](O)[C@@H](O)NC(=O)[C@@H]5[C@@H](O)[C@@H](C)CN5C(=O)[C@H]([C@H](O)CC(N)=O)NC(=O)[C@H]([C@H](O)[C@@H](O)c5ccc(O)c(OS(=O)(=O)O)c5)NC(=O)[C@@H]5C[C@@H](O)CN5C(=O)[C@H]([C@@H](C)O)NC4=O)cc3)no2)cc1 [micafungin] (X1-[Orn(4R-OH,5R-OH)]T[Hyp][hTyr(3S-OH,4S-OH,3'-OSO3H)][Gln(3R-OH)][Pro(3S-OH,4S-Me)]; lactam 1-C) and give its measured AUC(0-t).
Reply: 259 µg·h/mL

Reference source: paper PMC10051811
